measured.metric: IC50

Recorded IC50 for C=C[C@@H]1C[C@]1(NC(=O)[C@@H]1C[C@@H](Oc2nc(C3CC3)cc3ccccc23)CN1C(=O)[C@@H](NC(=O)OC(C)(C)C)C(C)(C)C)C(=O)NS(=O)(=O)C1CC1 with human liver cathepsin B (Homo sapiens, UniProt P07858), please?
> 200 µM

###

molecular target: HCV NS3/4A protease complex, BMS strain (UniProt P27958, C1454S/C1711G, species not given/STRAIN_BMS); experiment: Recombinant HCV NS3/4A protease complex FRET peptide assay (BMS strain); assay type: biochemical, HCV genotype 1a; conditions: NS3/4A BMS strain; read-out: IC50 range
measured.metric: IC50

Return reported IC50; argument: C=C[C@@H]1C[C@]1(NC(=O)[C@@H]1C[C@@H](Oc2ccnc3ccccc23)CN1C(=O)[C@@H](NC(=O)OC(C)(C)C)C(C)(C)C)C(=O)NS(C)(=O)=O
0.1 to 1 µM

Return reported IC50; argument: C=C[C@@H]1CC1(NC(=O)[C@@H]1CC(Oc2nccc3cc(OC)ccc23)CN1C(=O)[C@@H](NC(=O)O[C@@H]1C[C@H](C)CC[C@H]1C(C)C)C(C)(C)C)C(=O)NS(=O)(=O)C1CC1 (some centres unmarked)
< 0.1 µM

Return reported IC50; argument: C=C[C@@H]1C[C@]1(NC(=O)[C@@H]1C[C@@H](Oc2cc(-c3ccccc3)nc(-c3ccccc3)c2)CN1C(=O)[C@@H](NC(=O)OC(C)(C)C)C(C)(C)C)C(=O)NS(=O)(=O)C1CC1
< 0.1 µM

Return reported IC50; argument: C=C[C@@H]1C[C@]1(NC(=O)[C@@H]1C[C@@H](Oc2nccc3ccccc23)CN1C(=O)[C@@H](NC(=O)OCC(C)(C)C)C(C)(C)C)C(=O)NS(=O)(=O)C1CC1
< 0.1 µM

Return reported IC50; argument: C=C[C@@H]1C[C@]1(NC(=O)[C@@H]1C[C@@H](Oc2ccnc3cc(Cl)ccc23)CN1C(=O)[C@@H](NC(=O)OC1CCCC1)C(C)(C)C)C(=O)NS(=O)(=O)C1CC1
< 0.1 µM

###

tested on: HCV replicon in Huh7 cells; assay: HCV replicon cell-based assay; parameters: species or system HCV strain 1B; details: Hepatitis C virus, Huh-7; HCV replicon, Huh7 cells; read-out: EC50 range
pEC50: −log10 of the molar value.
measured.metric: pEC50

Recorded pEC50 for C=CC1C[C@]1(NC(=O)[C@@H]1C[C@@H](Oc2cnc3ccccc3n2)CN1C(=O)[C@@H](NC(=O)OC(C)(C)C)C(C)(C)C)C(=O)NS(=O)(=O)C1CC1 (some centres unmarked) with HCV replicon in Huh7 cells, please?
6.00 to 7.00

Recorded pEC50 for C=CC1C[C@]1(NC(=O)[C@@H]1C[C@@H](Oc2nncc3ccccc23)CN1C(=O)[C@@H](NC(=O)OC(C)(C)C)C(C)(C)C)C(=O)NS(=O)(=O)C1CC1 (some centres unmarked) with HCV replicon in Huh7 cells, please?
6.00 to 7.00

Recorded pEC50 for C=C[C@@H]1C[C@]1(NC(=O)[C@@H]1C[C@@H](Oc2nccc3cc(OCC)ccc23)CN1C(=O)[C@@H](NC(=O)OC(C)(C)C)C(C)(C)C)C(=O)NS(=O)(=O)C1CC1 with HCV replicon in Huh7 cells, please?
> 7.00

Recorded pEC50 for C=C[C@@H]1C[C@]1(NC(=O)[C@@H]1C[C@@H](Oc2nccc3ccccc23)CN1C(=O)[C@@H](NC(=O)Oc1ccccc1OC)C(C)(C)C)C(=O)NS(=O)(=O)C1CC1 with HCV replicon in Huh7 cells, please?
6.00 to 7.00

Recorded pEC50 for C=C[C@@H]1C[C@]1(NC(=O)[C@@H]1C[C@@H](Oc2nccc3cc(OC)ccc23)CN1C(=O)[C@H](CC(=O)OCc1ccccc1)NC(=O)OC(C)(C)C)C(=O)NS(=O)(=O)C1CC1 with HCV replicon in Huh7 cells, please?
> 7.00
